Molecular target: Aldehyde dehydrogenase, mitochondrial (Homo sapiens, UniProt P05091)
Sequence (P05091 whole entry): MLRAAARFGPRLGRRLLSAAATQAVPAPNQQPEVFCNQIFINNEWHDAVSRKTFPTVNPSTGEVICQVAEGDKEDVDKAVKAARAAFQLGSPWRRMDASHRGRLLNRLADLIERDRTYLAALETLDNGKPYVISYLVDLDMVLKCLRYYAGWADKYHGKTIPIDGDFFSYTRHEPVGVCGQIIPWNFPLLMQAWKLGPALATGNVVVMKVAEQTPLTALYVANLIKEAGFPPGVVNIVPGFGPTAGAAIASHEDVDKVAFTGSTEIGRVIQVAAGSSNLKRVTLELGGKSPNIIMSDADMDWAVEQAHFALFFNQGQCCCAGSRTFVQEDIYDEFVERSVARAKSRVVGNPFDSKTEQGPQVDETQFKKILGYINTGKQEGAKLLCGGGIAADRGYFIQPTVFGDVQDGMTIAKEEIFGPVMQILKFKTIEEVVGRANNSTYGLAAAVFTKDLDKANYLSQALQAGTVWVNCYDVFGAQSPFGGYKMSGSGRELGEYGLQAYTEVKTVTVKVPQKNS
pIC50: −log10 of the molar value.
Aldehyde dehydrogenase, mitochondrial (Homo sapiens, UniProt P05091) pIC50, compiled from various sources.
parameter_measured: pIC50

{"compound": "CCCCCN1C(=O)C(=O)c2ccccc21", "parameter_measured": "pIC50", "censoring_sign": "=", "endpoint_value": 5.77}
{"compound": "Br.N=C(N)SCc1ccc(CN2C(=O)C(=O)c3cc(C(F)(F)F)ccc32)cc1", "parameter_measured": "pIC50", "censoring_sign": "=", "endpoint_value": 5.67}
{"compound": "O=C1CCc2cc(OCCN3CCCC3c3cccc(F)c3)ccc2N1 (centres undefined)", "parameter_measured": "pIC50", "censoring_sign": "≤", "endpoint_value": 4.00}
{"compound": "O=C1C(=O)N(CCCc2ccccc2)c2ccccc21", "parameter_measured": "pIC50", "censoring_sign": "=", "endpoint_value": 5.92}

###

Aldehyde dehydrogenase, mitochondrial (Homo sapiens, UniProt P05091) pIC50, compiled from various sources.
Molecular target: Aldehyde dehydrogenase, mitochondrial (Homo sapiens, UniProt P05091)
Sequence (P05091 whole entry): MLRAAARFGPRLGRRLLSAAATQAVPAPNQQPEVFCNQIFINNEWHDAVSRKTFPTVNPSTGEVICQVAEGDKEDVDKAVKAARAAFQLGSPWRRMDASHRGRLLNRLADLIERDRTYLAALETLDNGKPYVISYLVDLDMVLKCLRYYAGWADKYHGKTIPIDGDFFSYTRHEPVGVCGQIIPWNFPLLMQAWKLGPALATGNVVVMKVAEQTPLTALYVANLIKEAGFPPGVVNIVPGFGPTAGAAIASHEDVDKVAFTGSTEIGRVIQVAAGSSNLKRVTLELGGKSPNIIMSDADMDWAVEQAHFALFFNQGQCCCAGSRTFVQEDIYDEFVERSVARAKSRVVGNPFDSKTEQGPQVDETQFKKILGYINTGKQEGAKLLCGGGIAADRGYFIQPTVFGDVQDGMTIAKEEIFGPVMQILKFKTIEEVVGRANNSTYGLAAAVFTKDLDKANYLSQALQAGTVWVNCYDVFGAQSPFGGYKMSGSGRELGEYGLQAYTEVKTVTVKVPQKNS
pIC50: −log10 of the molar value.
parameter_measured: pIC50

{"chem_smiles": "O=C1C(=O)N(CN2CCN(Cc3ccc4c(c3)OCO4)CC2)c2ccccc21", "assayed_system": "Aldehyde dehydrogenase, mitochondrial (Homo sapiens, UniProt P05091)", "censoring_sign": "<", "endpoint_value": 4.00}
{"chem_smiles": "N=C(N)SCc1ccc(CN2C(=O)C(=O)c3cccc(Cl)c32)cc1", "assayed_system": "Aldehyde dehydrogenase, mitochondrial (Homo sapiens, UniProt P05091)", "censoring_sign": "<", "endpoint_value": 5.00}
{"chem_smiles": "O=C1CCc2cc(NC(=O)c3sc(N4CCNCC4)nc3-c3cccc(F)c3)ccc2N1", "assayed_system": "Aldehyde dehydrogenase, mitochondrial (Homo sapiens, UniProt P05091)", "censoring_sign": "≤", "endpoint_value": 4.00}
{"chem_smiles": "Cc1cccc(Cn2c(CN3CCN(C(=O)C(C)C)CC3)nc3ccccc32)c1", "assayed_system": "Aldehyde dehydrogenase, mitochondrial (Homo sapiens, UniProt P05091)", "censoring_sign": "=", "endpoint_value": 5.64}
{"chem_smiles": "O=C1CCc2cc(OCCN3CCC[C@@H]3c3cccc(F)c3)ccc2N1", "assayed_system": "Aldehyde dehydrogenase, mitochondrial (Homo sapiens, UniProt P05091)", "censoring_sign": "≤", "endpoint_value": 4.00}
{"chem_smiles": "O=C1CCc2cc(NC(=O)c3sc(N4CCOCC4)nc3-c3cccc(F)c3)ccc2N1", "assayed_system": "Aldehyde dehydrogenase, mitochondrial (Homo sapiens, UniProt P05091)", "censoring_sign": "≤", "endpoint_value": 4.00}
{"chem_smiles": "CC(C)=CCn1c(CN2CCN(C(=O)C3CC3)CC2)nc2ccccc21", "assayed_system": "Aldehyde dehydrogenase, mitochondrial (Homo sapiens, UniProt P05091)", "censoring_sign": "=", "endpoint_value": 5.83}
{"chem_smiles": "O=C1C(=O)N(CN2CCN(Cc3ccccc3)CC2)c2ccccc21", "assayed_system": "Aldehyde dehydrogenase, mitochondrial (Homo sapiens, UniProt P05091)", "censoring_sign": "<", "endpoint_value": 4.00}
{"chem_smiles": "O=C(C1CC1)N1CCN(Cc2nc3ccccc3n2Cc2ccccc2Cl)CC1", "assayed_system": "Aldehyde dehydrogenase, mitochondrial (Homo sapiens, UniProt P05091)", "censoring_sign": "=", "endpoint_value": 5.50}
{"chem_smiles": "CCC(=O)N1CCN(Cc2nc3ccccc3n2Cc2cccc(C)c2)CC1", "assayed_system": "Aldehyde dehydrogenase, mitochondrial (Homo sapiens, UniProt P05091)", "censoring_sign": "=", "endpoint_value": 5.49}
